Target: human Nav1.7 (Homo sapiens, UniProt Q15858)
Construct: expressed in transfected cells
Sequence (Q15858 whole entry): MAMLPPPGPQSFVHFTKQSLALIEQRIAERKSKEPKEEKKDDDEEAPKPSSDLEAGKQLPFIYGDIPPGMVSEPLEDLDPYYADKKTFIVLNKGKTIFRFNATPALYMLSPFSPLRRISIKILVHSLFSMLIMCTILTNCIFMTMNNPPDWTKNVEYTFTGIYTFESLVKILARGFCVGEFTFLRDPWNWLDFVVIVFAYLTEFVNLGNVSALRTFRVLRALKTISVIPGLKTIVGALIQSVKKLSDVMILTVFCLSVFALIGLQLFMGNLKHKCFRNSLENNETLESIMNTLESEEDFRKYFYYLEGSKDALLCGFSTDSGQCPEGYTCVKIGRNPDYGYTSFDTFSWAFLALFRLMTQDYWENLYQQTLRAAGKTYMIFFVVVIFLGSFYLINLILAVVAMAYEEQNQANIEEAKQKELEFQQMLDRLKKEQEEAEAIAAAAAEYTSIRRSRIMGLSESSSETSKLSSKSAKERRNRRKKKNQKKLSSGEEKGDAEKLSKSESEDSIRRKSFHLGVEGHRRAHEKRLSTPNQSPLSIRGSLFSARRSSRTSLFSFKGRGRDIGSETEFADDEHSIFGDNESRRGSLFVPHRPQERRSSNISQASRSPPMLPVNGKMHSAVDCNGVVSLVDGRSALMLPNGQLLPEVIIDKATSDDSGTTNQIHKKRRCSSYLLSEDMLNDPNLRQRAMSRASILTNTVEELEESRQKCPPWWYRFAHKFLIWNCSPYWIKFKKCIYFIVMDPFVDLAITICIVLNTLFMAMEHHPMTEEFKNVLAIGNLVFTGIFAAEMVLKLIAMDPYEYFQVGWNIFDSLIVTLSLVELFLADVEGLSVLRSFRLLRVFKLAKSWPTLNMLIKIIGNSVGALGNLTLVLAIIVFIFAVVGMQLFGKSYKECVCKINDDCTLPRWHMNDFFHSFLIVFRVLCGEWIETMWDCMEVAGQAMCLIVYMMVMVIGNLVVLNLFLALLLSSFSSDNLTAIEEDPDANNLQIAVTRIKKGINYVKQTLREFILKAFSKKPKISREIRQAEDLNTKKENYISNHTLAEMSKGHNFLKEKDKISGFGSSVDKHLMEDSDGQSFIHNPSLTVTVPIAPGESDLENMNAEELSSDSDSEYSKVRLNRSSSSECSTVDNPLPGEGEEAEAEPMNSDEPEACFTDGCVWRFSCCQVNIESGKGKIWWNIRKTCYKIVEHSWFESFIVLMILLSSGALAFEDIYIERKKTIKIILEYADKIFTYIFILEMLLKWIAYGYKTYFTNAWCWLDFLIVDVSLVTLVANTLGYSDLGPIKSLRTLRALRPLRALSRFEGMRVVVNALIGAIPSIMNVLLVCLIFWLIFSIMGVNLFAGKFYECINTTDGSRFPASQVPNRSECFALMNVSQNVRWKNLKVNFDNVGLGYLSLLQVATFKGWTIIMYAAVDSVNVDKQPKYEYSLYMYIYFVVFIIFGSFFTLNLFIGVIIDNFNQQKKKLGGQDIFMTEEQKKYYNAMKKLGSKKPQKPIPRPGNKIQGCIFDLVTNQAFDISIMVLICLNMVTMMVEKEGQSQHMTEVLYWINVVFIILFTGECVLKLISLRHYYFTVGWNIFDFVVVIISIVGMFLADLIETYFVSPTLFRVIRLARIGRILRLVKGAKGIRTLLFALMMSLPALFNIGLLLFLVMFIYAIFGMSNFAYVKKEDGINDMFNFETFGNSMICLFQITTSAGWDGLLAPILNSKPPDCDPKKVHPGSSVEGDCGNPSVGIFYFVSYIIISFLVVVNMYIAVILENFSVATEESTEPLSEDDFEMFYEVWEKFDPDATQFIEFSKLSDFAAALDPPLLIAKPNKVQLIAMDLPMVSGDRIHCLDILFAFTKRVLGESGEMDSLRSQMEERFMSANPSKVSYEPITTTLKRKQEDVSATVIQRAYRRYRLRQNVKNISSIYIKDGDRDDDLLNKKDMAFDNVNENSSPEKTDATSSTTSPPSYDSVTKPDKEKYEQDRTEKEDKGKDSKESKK
Sequence (Q07699 19-218 partner): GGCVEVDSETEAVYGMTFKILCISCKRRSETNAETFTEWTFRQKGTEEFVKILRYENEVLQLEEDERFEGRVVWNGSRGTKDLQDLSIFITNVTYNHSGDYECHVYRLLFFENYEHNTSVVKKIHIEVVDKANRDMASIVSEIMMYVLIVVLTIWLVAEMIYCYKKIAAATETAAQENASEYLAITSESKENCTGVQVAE
Experiment: Assessment of Nav1.7 activity on PatchXpress (voltage dependence / slow inactivation parameters)
Assay type: cell-based
Settings: compound at 10 μM; relative to 0.2% DMSO vehicle control
The entries below come with measured hNav1.7: Voltage dependence of activation (mV) VDEP values attached.
Your answer should be a plain number; it is taken to be in mV.

Some molecules with recorded hNav1.7: Voltage dependence of activation (mV) VDEP:
Name the recorded hNav1.7: Voltage dependence of activation (mV) VDEP for CC(C)(CN1CCNCC1=O)c1nc2cc(C(F)(F)F)cc(C(F)(F)F)c2[nH]1 . −8.1

Which value of hNav1.7: Voltage dependence of activation (mV) VDEP has been reported for Cc1cccc(C)c1OCC(C)NC(=O)C(C)(C)CC(=O)N1CCNCC1 (centres unmarked) in the records? −8.70

Bench note: what hNav1.7: Voltage dependence of activation (mV) VDEP did CC(C)(CN1CCNCC1=O)c1nc2cc(F)cc(F)c2[nH]1 show? −5.3

Continuing:
# lookup: hNav1.7: Voltage dependence of activation (mV) VDEP of C[C@@H](NC(=O)CN1CCNCC1=O)c1ccc(OCC(F)(F)F)cn1 −10.3

// query hNav1.7: Voltage dependence of activation (mV) VDEP value for entry CC[C@H](C)[C@H](N)C(=O)NCCOc1cc(C(F)(F)F)cc(C(F)(F)F)c1 −8.10
